Conditions: in n-butanol, 318.15 K
Measurement Name: solubility (mole fraction)

>  <Smiles Representation>
O=C(O)CNC(=O)C(=O)NCC(=O)O

>  <Value Reported>
5.12e-05

$$$$

====

Details: in methanol, 318.15 K

>  <Smiles Representation>
O=C(O)CNC(=O)C(=O)NCC(=O)O

>  <solubility (mole fraction)>
0.000663

$$$$

====

Details: in water, 308.15 K

>  <Smiles Representation>
O=C(O)CNC(=O)C(=O)NCC(=O)O

>  <solubility (mole fraction)>
0.000362

$$$$

====

Conditions: in n-propanol, 318.15 K
Measurement Name: solubility (mole fraction)

>  <Smiles Representation>
O=C(O)CNC(=O)C(=O)NCC(=O)O

>  <Value Reported>
5.83e-05

$$$$

====

Conditions: in THF, 313.15 K

>  <Smiles Representation>
O=C(O)CNC(=O)C(=O)NCC(=O)O

>  <solubility (mole fraction)>
0.000203

$$$$

====

Details: in acetonitrile, 328.15 K
Measurement Name: solubility (mole fraction)

>  <Smiles Representation>
O=C(O)CNC(=O)C(=O)NCC(=O)O

>  <Measurement Name>
solubility (mole fraction)

>  <Value Reported>
3.62e-05

$$$$

====

Conditions: in THF, 308.15 K

>  <Smiles Representation>
O=C(O)CNC(=O)C(=O)NCC(=O)O

>  <solubility (mole fraction)>
9.96e-05

$$$$

====

Conditions: in methanol, 323.15 K

>  <Smiles Representation>
O=C(O)CNC(=O)C(=O)NCC(=O)O

>  <solubility (mole fraction)>
0.000816

$$$$

====

Settings: in THF, 293.15 K
Measurement Name: solubility (mole fraction)

>  <Smiles Representation>
O=C(O)CNC(=O)C(=O)NCC(=O)O

>  <Measurement Name>
solubility (mole fraction)

>  <Value Reported>
3.5e-06

$$$$

====

Conditions: in methanol, 298.15 K

>  <Smiles Representation>
O=C(O)CNC(=O)C(=O)NCC(=O)O

>  <solubility (mole fraction)>
0.000222

$$$$

====

Details: in ethyl acetate, 293.15 K

>  <Smiles Representation>
O=C(O)CNC(=O)C(=O)NCC(=O)O

>  <solubility (mole fraction)>
4.3e-06

$$$$

====

Conditions: in THF, 298.15 K
Measurement Name: solubility (mole fraction)

>  <Smiles Representation>
O=C(O)CNC(=O)C(=O)NCC(=O)O

>  <Value Reported>
1.41e-05

$$$$

Data origin: BigSolDB 2.1
